Assay procedure: in vivo
Experimental parameters: male, beagle, dog, plasma, po, 5 mg/kg

Query smiles	bioavailability, %
CC(C)N(CCc1c[nH]c2cccc(OC(=O)CCCC(=O)O)c12)C(C)C	0.854

----------
Assay procedure: Plasma protein binding, animal plasma
Assay type: in vitro ADME
Experimental parameters: animal plasma proteins
Quantity: fraction unbound

Query smiles	Quantity	Result
CC(C)N(CCc1c[nH]c2cccc(O)c12)C(C)C	fraction unbound	0.4 to 0.7

----------
Assay procedure: Phase 1 FIH study: plasma pharmacokinetics (LC-MS/MS)
Assay type: in vivo
Experimental parameters: female, plasma; human, RE104 dose 33 mg SC (n = 9); read-out: t1/2, mean (converted)
Quantity: half-life

Query smiles	Quantity	Result
CC(C)N(CCc1c[nH]c2cccc(O)c12)C(C)C	half-life	167 min
CC(C)N(CCc1c[nH]c2cccc(OC(=O)CCCC(=O)O)c12)C(C)C	half-life	25.8 min
